Triple point temperature by entry:
settings: Crystal 1; DTA
Note: unit K is implicit; provide only the numeric part.

Below, 3 compounds whose answers are already recorded.
> print(dat)
                               input.smiles  units.label  measured.value
1        CCCCCCCCCCCCCCCCCCCCCCCCCCCCCCCCCC            K           346.1
2  CCCCCCCCCCCCCCCCCCCCCCCCCCCCCCCCCCCCCCCC            K           354.6
3      CCCCCCCCCCCCCCCCCCCCCCCCCCCCCCCCCCCC            K           349.2

Entry `CCCCCCCCCCCCCCCCCCCCCCCCCCCCCCCCCCCCCCCCCC` — recorded Triple point temperature = 357.3

----------
assay: Molar enthalpy of transition or fusion; details: Crystal 2; DSC
VALUE_KIND: Molar enthalpy of transition or fusion (kcal/mol)
Note: unit kcal/mol is implicit; provide only the numeric part.

> print(dat)
                               input.smiles  measured.value
1      CCCCCCCCCCCCCCCCCCCCCCCCCCCCCCCCCCCC            6.82
2  CCCCCCCCCCCCCCCCCCCCCCCCCCCCCCCCCCCCCCCC            2.05

Entry `CCCCCCCCCCCCCCCCCCCCCCCCCCCCCCCCCCCCCCCCCC` — recorded Molar enthalpy of transition or fusion = 2.02

Entry `CCCCCCCCCCCCCCCCCCCCCCCCCCCCCCCCCC` — recorded Molar enthalpy of transition or fusion = 11.2

----------
test: Molar enthalpy of transition or fusion; settings: Crystal 3; DSC
VALUE_KIND: Molar enthalpy of transition or fusion (kcal/mol)
Note: unit kcal/mol is implicit; provide only the numeric part.

Below, 2 molecules whose answers are already recorded.
> print(dat)
                               input.smiles  units.label  measured.value
1        CCCCCCCCCCCCCCCCCCCCCCCCCCCCCCCCCC     kcal/mol          0.0968
2  CCCCCCCCCCCCCCCCCCCCCCCCCCCCCCCCCCCCCCCCCC     kcal/mol           0.504

Entry `CCCCCCCCCCCCCCCCCCCCCCCCCCCCCCCCCCCCCCCC` — recorded Molar enthalpy of transition or fusion = 0.601

Entry `CCCCCCCCCCCCCCCCCCCCCCCCCCCCCCCCCCCC` — recorded Molar enthalpy of transition or fusion = 3.59

----------
conditions: Crystal 3; DTA
VALUE_KIND: Triple point temperature (K)
Note: unit K is implicit; provide only the numeric part.

Below, 2 molecules whose answers are already recorded.
> print(dat)
                                   molecule                value.kind  units.label  measured.value
1  CCCCCCCCCCCCCCCCCCCCCCCCCCCCCCCCCCCCCCCCCC [dotetracontane]  Triple point temperature            K           344.6
2  CCCCCCCCCCCCCCCCCCCCCCCCCCCCCCCCCC [tetratriacontane]  Triple point temperature            K           342.8

Entry CCCCCCCCCCCCCCCCCCCCCCCCCCCCCCCCCCCC [hexatriacontane] — recorded Triple point temperature = 346.8

Entry CCCCCCCCCCCCCCCCCCCCCCCCCCCCCCCCCCCCCCCC [tetracontane] — recorded Triple point temperature = 345

----------
assay: Molar enthalpy of transition or fusion; conditions: Crystal 1; DSC
VALUE_KIND: Molar enthalpy of transition or fusion (kcal/mol)
Note: unit kcal/mol is implicit; provide only the numeric part.

Below, 3 compounds whose answers are already recorded.
> print(dat)
                               input.smiles                              value.kind  units.label  measured.value
1        CCCCCCCCCCCCCCCCCCCCCCCCCCCCCCCCCC  Molar enthalpy of transition or fusion     kcal/mol            22.9
2  CCCCCCCCCCCCCCCCCCCCCCCCCCCCCCCCCCCCCCCC  Molar enthalpy of transition or fusion     kcal/mol            34.4
3      CCCCCCCCCCCCCCCCCCCCCCCCCCCCCCCCCCCC  Molar enthalpy of transition or fusion     kcal/mol            24.5

Could you now look at the following compound, please?
Entry `CCCCCCCCCCCCCCCCCCCCCCCCCCCCCCCCCCCCCCCCCC` — recorded Molar enthalpy of transition or fusion = 39.7

----------
details: Crystal 2; DTA
VALUE_KIND: Triple point temperature (K)
Note: unit K is implicit; provide only the numeric part.

> print(dat)
                               input.smiles  units.label  measured.value
1  CCCCCCCCCCCCCCCCCCCCCCCCCCCCCCCCCCCCCCCC            K           347.7

Entry `CCCCCCCCCCCCCCCCCCCCCCCCCCCCCCCCCCCCCCCCCC` — recorded Triple point temperature = 348.6

Entry `CCCCCCCCCCCCCCCCCCCCCCCCCCCCCCCCCCCC` — recorded Triple point temperature = 347.1

Entry `CCCCCCCCCCCCCCCCCCCCCCCCCCCCCCCCCC` — recorded Triple point temperature = 343.5
